- targetOrSystem: MBP-LIC1FL, full-length dynein light intermediate chain-1 (human, UniProt Q9Y6G9 1-523)
- Sequence (Q9Y6G9 whole entry): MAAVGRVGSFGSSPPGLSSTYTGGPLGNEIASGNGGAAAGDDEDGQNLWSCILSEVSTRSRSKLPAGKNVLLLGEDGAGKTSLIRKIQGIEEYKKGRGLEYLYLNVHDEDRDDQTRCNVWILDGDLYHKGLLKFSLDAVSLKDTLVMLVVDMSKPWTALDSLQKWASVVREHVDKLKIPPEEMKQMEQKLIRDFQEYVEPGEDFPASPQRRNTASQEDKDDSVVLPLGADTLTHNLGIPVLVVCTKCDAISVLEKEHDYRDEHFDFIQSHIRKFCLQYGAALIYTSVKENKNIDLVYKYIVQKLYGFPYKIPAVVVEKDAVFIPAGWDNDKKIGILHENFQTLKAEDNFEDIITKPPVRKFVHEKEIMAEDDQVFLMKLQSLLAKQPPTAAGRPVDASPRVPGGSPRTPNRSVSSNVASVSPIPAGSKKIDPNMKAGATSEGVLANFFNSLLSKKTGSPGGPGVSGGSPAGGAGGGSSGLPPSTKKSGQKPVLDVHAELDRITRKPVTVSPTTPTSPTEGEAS
- procedureText: ITC; 5 mM EGTA, 30 °C
measurementLabel: pKd
# pKd: negative log10 of molar concentration; output just the value

* FIP3_(206–270), EF-hand pair of Rab11 family-interacting protein 3 (domain or fragment) RLRAVFDALDGDGDGFVRIEDFIQFATVYGAEQVKDLTKYLDPSGLGVISFEDFYQGITAIRNGD | 5.51

Q: Fill blank: measured pKd of the binder NIN_(1–87), first EF-hand pair of Ninein (domain or fragment) MDEVEQDQHEARLKELFDSFDTTGTGSLGQEELTDLCHMLSLEEVAPVLQQTLLQDNLLGRVHFDQFKEALILILSRTLSNEEHFQE is ____.
Result: 4.81
